- Assay method text: Cytotoxicity against human Huh-9-13 cells after 3 days by MTT assay
- Assay type: cell-based
Reported metric: CC50 at 72 h

Measured CC50 at 72 h of CC(C)(C)NC(=O)N[C@H](C(=O)N1C[C@H]2[C@@H]([C@H]1C(=O)NC(CC1CCC1)C(=O)C(N)=O)C2(C)C)C(C)(C)C (stereo not given in full) : > 33 µM

Kindly note the recorded CC50 at 72 h for O=C(O)c1cccs1 , which is > 33 µM

Field CC50 at 72 h (entry Brc1c(Br)c(Br)c2[nH]nnc2c1Br ) reads > 100 µM

Lab note: COc1ccc2c(O[C@@H]3C[C@H]4C(=O)N[C@]5(C(=O)O)C[C@H]5/C=C\CCCCC[C@H](NC(=O)OC5CCCC5)C(=O)N4C3)cc(-c3csc(NC(C)C)n3)nc2c1 gave CC50 at 72 h of > 3 µM

Note to self: CC50 at 72 h recorded for C/C=C/C[C@@H](C)[C@@H](O)[C@H]1C(=O)N[C@@H](CC)C(=O)N(C)[C@H](C)C(=O)N(CC)[C@@H](C(C)C)C(=O)N[C@@H](C(C)C)C(=O)N(C)[C@@H](CC(C)C)C(=O)N[C@@H](C)C(=O)N[C@H](C)C(=O)N(C)[C@@H](CC(C)C)C(=O)N(C)[C@@H](CC(C)C)C(=O)N(C)[C@@H](C(C)C)C(=O)N1C was > 3 µM
